For each of the compounds below, state its growth inhibition.
Test system: DIPGX9 (diffuse intrinsic pontine glioma line)
TEST_NAME: growth inhibition (% activity, log2 RLU normalised to DMSO / staurosporine); higher = more growth inhibition
CONDITION_LABEL: 33 µM
Answers are plain numbers, in %.

COMPOUND: O=C1c2ccccc2C(=O)C1c1ccccc1
UNIT_OF_MEASUREMENT: %
growth inhibition: -0.146
//
COMPOUND: O=NO
UNIT_OF_MEASUREMENT: %
growth inhibition: 0.322
//
COMPOUND: Nc1ccc(S(N)(=O)=O)cc1
UNIT_OF_MEASUREMENT: %
growth inhibition: 1.31

// each compound listed below needs its growth inhibition
1. CC(=O)OCC(=O)[C@@]1(O)CC[C@H]2[C@@H]3CCC4=CC(=O)C=C[C@]4(C)[C@H]3[C@@H](O)C[C@@]21C
2. O=c1c(-c2ccc(O)cc2)coc2cc(O)cc(O)c12
3. C=C1CCC(O)CC1=CC=C1CCCC2(C)C1CCC2C(C)CCCC(C)(C)O (stereo unspecified)

[3.92, 4.34, -0.221]

* * *

Test system: DIPGX7 (H3.3 K27M diffuse intrinsic pontine glioma line)
TEST_NAME: growth inhibition (% activity, log2 RLU normalised to DMSO / staurosporine); higher = more growth inhibition
CONDITION_LABEL: 33 µM
VALUE_KIND: growth inhibition (%)
One number for each entry, in %.

Answered examples (2):
MOLECULE: Nc1nc2[nH]cc(CCc3ccc(C(=O)N[C@@H](CCC(=O)O)C(=O)O)cc3)c2c(=O)[nH]1
UNIT_OF_MEASUREMENT: %
growth inhibition: 2.83

MOLECULE: CC[C@]1(O)C[C@@H]2CN(CCc3c([nH]c4ccccc34)[C@@](C(=O)OC)(c3cc4c(cc3OC)N(C)[C@H]3[C@@](O)(C(=O)OC)[C@H](OC(C)=O)[C@]5(CC)C=CCN6CC[C@]43[C@@H]65)C2)C1
UNIT_OF_MEASUREMENT: %
growth inhibition: 13.2

// each molecule listed below needs its growth inhibition
1. CCCC(=O)[O-].[Na+]
2. COc1ccccc1OCC(O)COC(N)=O (centres undefined)
3. CC(C)C[C@H](NC(=O)[C@H](O)[C@H](N)Cc1ccccc1)C(=O)O

1. -0.966
2. 0.111
3. 0.163

// each molecule listed below needs its growth inhibition
1. CC(C)(C)c1ccc(C(O)CCCN2CCC(C(O)(c3ccccc3)c3ccccc3)CC2)cc1 (centres undefined)
2. CC(C)n1c(/C=C/[C@@H](O)C[C@@H](O)CC(=O)O)c(-c2ccc(F)cc2)c2ccccc21
3. O=C1[C@H](CC[C@H](O)c2ccc(F)cc2)[C@@H](c2ccc(O)cc2)N1c1ccc(F)cc1
4. O=S(=O)(O)c1cc(O)ccc1O
5. CCCC(=O)Nc1ccc(OCC(O)CNC(C)C)c(C(C)=O)c1 (centres undefined)
6. Cc1cc(=O)[nH]c(=S)[nH]1
7. CC[C@]1(O)C[C@H]2CN(CCc3c([nH]c4ccccc34)[C@@](C(=O)OC)(c3cc4c(cc3OC)N(C=O)[C@H]3[C@@](O)(C(=O)OC)[C@H](OC(C)=O)[C@]5(CC)C=CCN6CC[C@]43[C@@H]65)C2)C1
8. O=c1n(CCCN2CCN(c3cccc(Cl)c3)CC2)nc2ccccn12

0.488
6.29
1.88
-0.642
-1.01
2.93
15.1
4.26

// each molecule listed below needs its growth inhibition
1. CC(C(=O)O)c1ccc(-c2ccccc2)c(F)c1 (centres undefined)
2. CN(C)C(=N)NC(=N)N
3. CCCNC(C)C(=O)Nc1ccccc1C (centres undefined)
4. O=C(O)c1cccnc1Nc1cccc(C(F)(F)F)c1

[1.53, -1.41, -1.19, -0.0228]

// each molecule listed below needs its growth inhibition
1. CCC(=O)O[C@]1(C(=O)CCl)[C@@H](C)C[C@H]2[C@@H]3CCC4=CC(=O)C=C[C@]4(C)[C@@]3(F)[C@@H](O)C[C@@]21C
2. CC(=O)OCC(=O)[C@@]1(O)CC[C@H]2[C@@H]3CCC4=CC(=O)CC[C@]4(C)[C@H]3C(=O)C[C@@]21C
3. CCN(Cc1ccncc1)C(=O)C(CO)c1ccccc1 (centres undefined)

1: 1.96; 2: -1.09; 3: -1.34

// each molecule listed below needs its growth inhibition
1. C#CC1(O)CCC2C3CCc4cc(OC)ccc4C3CCC21C (centres undefined)
2. N[C@@H](Cc1cc(I)c(Oc2ccc(O)c(I)c2)c(I)c1)C(=O)O
3. Clc1ccc(CSC(Cn2ccnc2)c2ccc(Cl)cc2Cl)cc1 (centres undefined)
4. Cn1cnc([N+](=O)[O-])c1Sc1ncnc2[nH]cnc12
5. COc1c(N2C[C@@H]3CCCN[C@@H]3C2)c(F)cc2c(=O)c(C(=O)O)cn(C3CC3)c12
6. Cc1c(N(C)C)c(=O)n(-c2ccccc2)n1C
7. COc1cc(/C=C/C(=O)CC(=O)/C=C/c2ccc(O)c(OC)c2)ccc1O

-0.178
1.41
3.59
21.6
5.33
0.576
1.4

// each molecule listed below needs its growth inhibition
1. CNC(=O)c1cc(Oc2ccc(NC(=O)Nc3ccc(Cl)c(C(F)(F)F)c3)cc2)ccn1
2. CCCCCCCCCCCC[N+](C)(C)CCOc1ccccc1
3. O=C1c2ccccc2C(=O)C1c1ccccc1
4. Cc1cn([C@H]2C[C@H](N=[N+]=[N-])[C@@H](CO)O2)c(=O)[nH]c1=O
5. CCCC1O[C@@H]2C[C@H]3[C@@H]4CCC5=CC(=O)C=C[C@]5(C)[C@H]4[C@@H](O)C[C@]3(C)[C@]2(C(=O)CO)O1 (some centres undefined)
6. CC[C@H]1OC(=O)[C@H](C)[C@@H](O[C@H]2C[C@@](C)(OC)[C@@H](O)[C@H](C)O2)[C@H](C)[C@@H](O[C@@H]2O[C@H](C)C[C@H](N(C)C)[C@H]2O)[C@](C)(O)C[C@@H](C)/C(=N\OCOCCOC)[C@H](C)[C@@H](O)[C@]1(C)O

28.2
53.9
-0.877
4.01
-1.11
-0.0281

// each molecule listed below needs its growth inhibition
1. CCC[C@@H]1C[C@@H](C(=O)N[C@@H]([C@H]2O[C@H](SC)[C@H](O)[C@@H](O)[C@H]2O)[C@@H](C)O)N(C)C1
2. O=C(CCCN1CCN(c2ccccn2)CC1)c1ccc(F)cc1
3. CCCCCCCCCCCCCCCCO
4. Nc1ccc(O)c(C(=O)O)c1
5. CN(C)CCN(Cc1cccs1)c1ccccn1
6. CCN1CCN(c2cc3c(cc2F)c(=O)c(C(=O)O)cn3C2CC2)CC1

1. -0.347
2. 5.21
3. 1.65
4. 0.431
5. 1.81
6. 0.805
